Value source: patent US7897602B2

System Under Test: Aurora A kinase (Homo sapiens, UniProt O14965)
Construct: purchased Upstate
Sequence (O14965 whole entry): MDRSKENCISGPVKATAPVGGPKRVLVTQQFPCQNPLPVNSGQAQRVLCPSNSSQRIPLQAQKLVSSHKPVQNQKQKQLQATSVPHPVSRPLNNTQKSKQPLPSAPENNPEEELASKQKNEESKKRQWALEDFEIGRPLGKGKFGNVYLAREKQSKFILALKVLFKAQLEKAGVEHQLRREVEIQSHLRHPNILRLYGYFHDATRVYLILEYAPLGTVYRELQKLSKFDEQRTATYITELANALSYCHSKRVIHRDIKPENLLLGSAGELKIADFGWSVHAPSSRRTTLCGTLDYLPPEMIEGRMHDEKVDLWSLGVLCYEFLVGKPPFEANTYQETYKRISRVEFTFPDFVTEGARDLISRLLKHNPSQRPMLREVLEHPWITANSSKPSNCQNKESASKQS
Protocol Details: Aurora A kinase assay ([γ-33P]ATP, CHOCKtide substrate)
Assay type: biochemical
Test Parameters: 1.0 μM test compound
Given measured inhibition at 1 µM, output Condition met if it is greater than or equal to 40% and Condition not met if not.

Given the entry CCOC(=O)CCc1c(C=C2C(=S)Nc3ccccc32)[nH]c2c1C(=O)CCC2 , answer whether its inhibition at 1 µM meets or surpasses 40%. Condition not met

Given the entry CCOC(=O)CCc1c(/C=C2\C(=O)Nc3ccc(NC(=O)c4ccccc4)cc32)[nH]c2c1C(=O)CCC2 , answer whether its inhibition at 1 µM meets or surpasses 40%. Condition not met

Given the entry CCOC(=O)CCc1c(/C=C2\C(=O)Nc3cc(-c4ccc(O)c(O)c4)ccc32)[nH]c2c1C(=O)CCC2 , answer whether its inhibition at 1 µM meets or surpasses 40%. Condition met

Given the entry CN1CCN(C(=O)CCc2c(/C=C3\C(=O)Nc4ccc(NS(=O)(=O)c5ccccc5)cc43)[nH]c3c2C(=O)CCC3)CC1 , answer whether its inhibition at 1 µM meets or surpasses 40%. Condition met

Given the entry O=C(O)CCc1c(C=C2C(=S)Nc3ccccc32)[nH]c2c1C(=O)CCC2 , answer whether its inhibition at 1 µM meets or surpasses 40%. Condition not met

Given the entry CC1(C)CC(=O)c2c([nH]c(/C=C3\C(=O)Nc4ccc(S(=O)(=O)Cc5c(Cl)cccc5Cl)cc43)c2CCC(=O)O)C1 , answer whether its inhibition at 1 µM meets or surpasses 40%. Condition not met

* * *

I'd be grateful if you could share measured inhibition at 1 µM for these entries.
System Under Test: Aurora B kinase (Homo sapiens)
Construct: purchased Cell signaling
Protocol Details: Aurora B kinase assay ([γ-33P]ATP, CHOCKtide substrate)
Assay type: biochemical
Test Parameters: 1.0 μM test compound
Please respond with the number in % and leave the unit unwritten.

Which inhibition at 1 µM reading was recorded for the compound CCOC(=O)CCc1c(/C=C2\C(=O)Nc3cc(-c4ccc(O)c(O)c4)ccc32)[nH]c2c1C(=O)CCC2 [DCB-70077] ? 47.5

Which inhibition at 1 µM reading was recorded for the compound COc1cccc(S(=O)(=O)Nc2ccc3c(c2)/C(=C/c2[nH]c4c(c2CCC(=O)O)C(=O)CCC4)C(=O)N3)c1 [DCB-70196] ? 55.8

Which inhibition at 1 µM reading was recorded for the compound CCOC(=O)CCc1c(/C=C2\C(=O)Nc3ccc(-c4ccc(O)c(OC)c4)cc32)[nH]c2c1C(=O)CCC2 [DCB-70058] ? -1

Which inhibition at 1 µM reading was recorded for the compound CCOC(=O)CCc1c(/C=C2\C(=O)Nc3ccc(NS(=O)(=O)c4cc(Cl)cc(Cl)c4)cc32)[nH]c2c1C(=O)CCC2 [DCB-70193] ? 36.7

Which inhibition at 1 µM reading was recorded for the compound CCOC(=O)CCc1c(/C=C2\C(=O)Nc3ccc(Br)cc32)[nH]c2c1C(=O)CCC2 [DCB-70056] ? 7.2

Which inhibition at 1 µM reading was recorded for the compound Cc1ccc(NC(=O)Nc2ccc3c(c2)/C(=C/c2[nH]c4c(c2CCC(=O)O)C(=O)CCC4)C(=O)N3)cc1 [DCB-70093] ? 14.7

Which inhibition at 1 µM reading was recorded for the compound O=C(O)CCc1c(/C=C2\C(=O)Nc3ccc(S(=O)(=O)Cc4ccccc4)cc32)[nH]c2c1C(=O)CCC2 [DCB-70071] ? 11.2

* * *

System Under Test: Aurora B kinase (Homo sapiens, UniProt Q96GD4)
Construct: purchased Cell signaling
Sequence (Q96GD4 whole entry): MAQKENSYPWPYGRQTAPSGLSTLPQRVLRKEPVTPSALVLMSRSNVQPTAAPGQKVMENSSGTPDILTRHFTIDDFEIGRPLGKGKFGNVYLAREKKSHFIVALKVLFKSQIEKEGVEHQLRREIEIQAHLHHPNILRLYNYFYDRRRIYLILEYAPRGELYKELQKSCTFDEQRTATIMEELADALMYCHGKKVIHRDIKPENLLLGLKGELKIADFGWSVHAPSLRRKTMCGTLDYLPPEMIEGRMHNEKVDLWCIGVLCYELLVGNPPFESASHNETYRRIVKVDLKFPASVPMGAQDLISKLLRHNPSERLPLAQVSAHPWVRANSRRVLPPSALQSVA
Protocol Details: Aurora B kinase assay ([γ-33P]ATP, CHOCKtide substrate)
Format: biochemical
Test Parameters: 1.0 μM test compound
Given measured inhibition at 1 µM, output 1 if it is greater than or equal to 30% and 0 if not.

Given the entry CN1CCN(C(=O)CCc2c(/C=C3\C(=O)Nc4ccc(NS(=O)(=O)c5ccccc5)cc43)[nH]c3c2C(=O)CCC3)CC1 , answer whether its inhibition at 1 µM meets or surpasses 30%. 1

Given the entry CCN(CC)CCNC(=O)CCc1c(/C=C2\C(=O)Nc3ccc(S(=O)(=O)N4CCc5ccccc54)cc32)[nH]c(C)c1C(C)=O , answer whether its inhibition at 1 µM meets or surpasses 30%. 0

Given the entry CCOC(=O)CCc1c(/C=C2\C(=O)Nc3cc(-c4ccc(O)cc4)ccc32)[nH]c2c1C(=O)CCC2 , answer whether its inhibition at 1 µM meets or surpasses 30%. 0

Given the entry O=C(O)CCc1c(/C=C2\C(=O)Nc3ccc(NS(=O)(=O)c4cc(F)cc(F)c4)cc32)[nH]c2c1C(=O)CCC2 , answer whether its inhibition at 1 µM meets or surpasses 30%. 1

Given the entry CCCCCCC#Cc1ccc2c(c1)NC(=O)/C2=C\c1[nH]c2c(c1CCC(=O)OCC)C(=O)CCC2 , answer whether its inhibition at 1 µM meets or surpasses 30%. 0

Given the entry O=C(O)CCc1c(/C=C2\C(=O)Nc3ccc(NC(=O)c4ccc([N+](=O)[O-])cc4)cc32)[nH]c2c1C(=O)CCC2 , answer whether its inhibition at 1 µM meets or surpasses 30%. 0

Given the entry CC(=O)c1c(C)[nH]c(/C=C2\C(=O)Nc3ccc(S(=O)(=O)N4CCc5ccccc54)cc32)c1CCC(=O)O , answer whether its inhibition at 1 µM meets or surpasses 30%. 1

Given the entry O=C(O)CCc1c(/C=C2\C(=O)Nc3cc(-c4cc5ccccc5s4)ccc32)[nH]c2c1C(=O)CCC2 , answer whether its inhibition at 1 µM meets or surpasses 30%. 1

Given the entry CN1CCN(C(=O)CCc2c(/C=C3\C(=O)Nc4ccc(S(=O)(=O)N5CCCC5)cc43)[nH]c3c2C(=O)CCC3)CC1 , answer whether its inhibition at 1 µM meets or surpasses 30%. 0

Given the entry O=C(O)CCc1c(/C=C2\C(=O)Nc3cc(-c4ccc(O)cc4)ccc32)[nH]c2c1C(=O)CCCC2 , answer whether its inhibition at 1 µM meets or surpasses 30%. 0

Given the entry CCOC(=O)CCc1c(/C=C2\C(=O)Nc3cc(Br)ccc32)[nH]c2c1C(=O)CCC2 , answer whether its inhibition at 1 µM meets or surpasses 30%. 0

Given the entry CCOC(=O)CCc1c(/C=C2\C(=O)Nc3ccc(NS(=O)(=O)c4ccccc4)cc32)[nH]c(C)c1C(C)=O , answer whether its inhibition at 1 µM meets or surpasses 30%. 1

Given the entry CC(=O)c1c(C)[nH]c(/C=C2\C(=O)Nc3ccc(S(=O)(=O)Cc4c(Cl)cccc4Cl)cc32)c1CCC(=O)N1CCN(C)CC1 , answer whether its inhibition at 1 µM meets or surpasses 30%. 0

* * *

System Under Test: Aurora A kinase (Homo sapiens, UniProt O14965)
Construct: purchased Upstate
Protocol Details: Aurora A kinase assay ([γ-33P]ATP, CHOCKtide substrate)
Assay type: biochemical
Test Parameters: 1.0 μM test compound
Reported Metric: inhibition at 1 µM (%)
Please respond with the number in % and leave the unit unwritten.

Notebook: pull reported inhibition at 1 µM for Aurora A kinase (Homo sapiens, UniProt O14965), entry COc1cc(-c2ccc3c(c2)NC(=O)/C3=C\c2[nH]c3c(c2CCC(=O)O)C(=O)CCC3)ccc1O [DCB-70082] 81.7

Notebook: pull reported inhibition at 1 µM for Aurora A kinase (Homo sapiens, UniProt O14965), entry CCOC(=O)CCc1c(/C=C2\C(=O)Nc3ccc(/N=C/c4ccsc4)cc32)[nH]c2c1C(=O)CCC2 [DCB-70180] 71.5

Notebook: pull reported inhibition at 1 µM for Aurora A kinase (Homo sapiens, UniProt O14965), entry O=C(O)CCc1c(/C=C2\C(=O)Nc3cc(-c4cc5ccccc5s4)ccc32)[nH]c2c1C(=O)CCC2 [DCB-70080] 40.3

Notebook: pull reported inhibition at 1 µM for Aurora A kinase (Homo sapiens, UniProt O14965), entry CCOC(=O)CCc1c(/C=C2\C(=O)Nc3ccc(NCc4ccc(OC)cc4)cc32)[nH]c2c1C(=O)CCC2 [DCB-70175] 30.7

Notebook: pull reported inhibition at 1 µM for Aurora A kinase (Homo sapiens, UniProt O14965), entry C=CS(=O)(=O)c1ccc2c(c1)/C(=C/c1[nH]c3c(c1CCC(=O)O)C(=O)CCC3)C(=O)N2 [DCB-70115] 99.4

Notebook: pull reported inhibition at 1 µM for Aurora A kinase (Homo sapiens, UniProt O14965), entry CCOC(=O)CCc1c(/C=C2\C(=O)Nc3cc(-c4cc5ccccc5s4)ccc32)[nH]c2c1C(=O)CCC2 [DCB-70079] 8.8

Notebook: pull reported inhibition at 1 µM for Aurora A kinase (Homo sapiens, UniProt O14965), entry CCOC(=O)CCc1c(/C=C2\C(=O)Nc3ccc(NC(=O)Nc4ccc(F)cc4F)cc32)[nH]c2c1C(=O)CCC2 [DCB-70183] 13.2

Notebook: pull reported inhibition at 1 µM for Aurora A kinase (Homo sapiens, UniProt O14965), entry CCOC(=O)CCc1c(/C=C2\C(=O)Nc3ccccc32)[nH]c2c1C(=O)CCC2 [DCB-70049] 32.6

Notebook: pull reported inhibition at 1 µM for Aurora A kinase (Homo sapiens, UniProt O14965), entry CCCCCCC#Cc1ccc2c(c1)/C(=C/c1[nH]c3c(c1CCC(=O)OCC)C(=O)CCC3)C(=O)N2 [DCB-70172] -3.1

Notebook: pull reported inhibition at 1 µM for Aurora A kinase (Homo sapiens, UniProt O14965), entry CCOC(=O)CCc1c(/C=C2\C(=O)Nc3ccc(NS(=O)(=O)c4ccc5ccccc5c4)cc32)[nH]c2c1C(=O)CCC2 [DCB-70191] 20.4

Notebook: pull reported inhibition at 1 µM for Aurora A kinase (Homo sapiens, UniProt O14965), entry CCOC(=O)CCc1c(/C=C2\C(=O)Nc3ccc(NS(=O)(=O)c4ccccc4)cc32)[nH]c2c1C(=O)CCCC2 [DCB-70146] 81.3

Notebook: pull reported inhibition at 1 µM for Aurora A kinase (Homo sapiens, UniProt O14965), entry O=C(O)CCc1c(/C=C2\C(=O)Nc3ccc(F)cc32)[nH]c2c1C(=O)CCC2 [DCB-70055] 79.8

Notebook: pull reported inhibition at 1 µM for Aurora A kinase (Homo sapiens, UniProt O14965), entry O=C1Nc2ccc(F)cc2/C1=C/c1[nH]c2c(c1CCC(=O)N1CCOCC1)C(=O)CCC2 [DCB-70125] 39.7

Notebook: pull reported inhibition at 1 µM for Aurora A kinase (Homo sapiens, UniProt O14965), entry O=C(O)CCc1c(/C=C2\C(=O)Nc3cc(-c4ccc(O)cc4)ccc32)[nH]c2c1C(=O)CCCC2 [DCB-70151] 37.2

Notebook: pull reported inhibition at 1 µM for Aurora A kinase (Homo sapiens, UniProt O14965), entry COc1cc(-c2ccc3c(c2)/C(=C/c2[nH]c4c(c2CCC(=O)O)C(=O)CCC4)C(=O)N3)ccc1O [DCB-70059] 76.1

Notebook: pull reported inhibition at 1 µM for Aurora A kinase (Homo sapiens, UniProt O14965), entry CCOC(=O)CCc1c(/C=C2\C(=O)Nc3ccc(NS(=O)(=O)c4ccc(F)cc4)cc32)[nH]c2c1C(=O)CCC2 [DCB-70144] 82

Notebook: pull reported inhibition at 1 µM for Aurora A kinase (Homo sapiens, UniProt O14965), entry O=C(O)CCc1c(/C=C2\C(=O)Nc3cc(F)ccc32)[nH]c2c1C(=O)CCC2 [DCB-70123] 78.1

Notebook: pull reported inhibition at 1 µM for Aurora A kinase (Homo sapiens, UniProt O14965), entry O=C(O)CCc1c(/C=C2\C(=O)Nc3ccc(S(=O)(=O)N4CCc5ccccc54)cc32)[nH]c2c1C(=O)CCC2 [DCB-70106] 99
